Cited source for all entries: the supplement of paper PMC9112550

Recorded shrunken log2 fold change, one value per entry.
system: Escherichia coli TOP10; assay: shrunken log2 fold change of peptide-encoding DNA abundance (4.5 h post-induction vs induction); higher = less antimicrobial activity (less host growth inhibition); conditions: time post-induction: 4.5 h; library: site-saturation at positions 5, 18, 19, 20;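 note: peptides expressed intracellularly from a pBAD plasmid library in pooled LB shake-flask culture, induced with 0.3% L-arabinose, DNA abundance read by NGS, three biological replicates, DESeq2 with apeglm shrinkage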

(Q) State its shrunken log2 fold change: `RRIRPRPPRLPRPRPRPFHSPRP`
(A) -0.153

(Q) State its shrunken log2 fold change: `RRIRARPPRLPRPRPRPMMNPRP`
(A) 0.198

(Q) State its shrunken log2 fold change: `RRIRVRPPRLPRPRPRPYHVPRP`
(A) -0.055

(Q) State its shrunken log2 fold change: `RRIRKRPPRLPRPRPRPRQLPRP`
(A) 0.8

(Q) State its shrunken log2 fold change: `RRIRGRPPRLPRPRPRPMLMPRP`
(A) 1.09

(Q) State its shrunken log2 fold change: `RRIRYRPPRLPRPRPRPSGYPRP`
(A) -0.714
